system: Staphylococcus aureus; assay: Mueller-Hinton agar dilution method (MIC); assay type: cell-based; conditions: beta-lactamase positive, strain SSC 79-44, Table II, read-out: Minimal Inhibitory Concentration
quantityKind: MIC (µg/mL)
Report the figure in µg/mL without appending any unit label.

The following compounds have reported results that may help.
CO[C@@]1(NC(=O)Cc2cccs2)C(=O)N2C(C(=O)O)=C(COC(N)=O)CS[C@@H]21	2
CO/N=C(\C(=O)N[C@@H]1C(=O)N2C(C(=O)O)=C(CSc3nnnn3C)CS[C@H]12)c1csc(N)n1	2

Shift focus to the following entry.
**Q:** Requested read-out: MIC. Entry: CCN1CCN(C(=O)N[C@@H](C(=O)N[C@@H]2C(=O)N3C(C(=O)O)=C(CSc4nnnn4C)CS[C@H]23)c2ccc(O)cc2)C(=O)C1=O
**A:** 1

====

Reported MIC values follow for various compounds
test system: Staphylococcus aureus; experiment: Mueller-Hinton agar dilution method (MIC); assay type: cell-based; settings: beta-lactamase negative, strain SSC 79-7, Table II, read-out: Minimal Inhibitory Concentration
Report the figure in µg/mL without appending any unit label.

The following compounds have reported results that may help.
CO/N=C(\C(=O)N[C@@H]1C(=O)N2C(C(=O)O)=C(CSc3nnnn3C)CS[C@H]12)c1csc(N)n1	1
CCN1CCN(C(=O)N[C@@H](C(=O)N[C@@H]2C(=O)N3C(C(=O)O)=C(CSc4nnnn4C)CS[C@H]23)c2ccc(O)cc2)C(=O)C1=O	0.5
CO/N=C(\C(=O)N[C@@H]1C(=O)N2C(C(=O)O)=C(CSc3cnns3)CS[C@H]12)c1csc(N)n1	0.12
CO[C@@]1(NC(=O)Cc2cccs2)C(=O)N2C(C(=O)O)=C(COC(N)=O)CS[C@@H]21	1

**Q:** Requested read-out: MIC. Entry: CO[C@@]1(NC(=O)C(C(=O)O)c2ccc(O)cc2)C(=O)N2C(C(=O)O)=C(CSc3nnnn3C)CO[C@@H]21 (stereo partly drawn)
**A:** 2

**Q:** Requested read-out: MIC. Entry: CO/N=C(\C(=O)N[C@@H]1C(=O)N2C(C(=O)O)=CCS[C@H]12)c1csc(N)n1
**A:** 0.5

====

system: Staphylococcus aureus; test: Mueller-Hinton agar dilution method (MIC); assay type: cell-based; settings: beta-lactamase positive, strain SSC 79-44, Table II, read-out: Minimal Inhibitory Concentration
Reported MIC values follow for various molecules
Report the figure in µg/mL without appending any unit label.

The following molecules have reported results that may help.
CO/N=C(\C(=O)N[C@@H]1C(=O)N2C(C(=O)O)=C(CSc3cnns3)CS[C@H]12)c1csc(N)n1 [Compound Ia]	0.12
CO[C@@]1(NC(=O)C(C(=O)O)c2ccc(O)cc2)C(=O)N2C(C(=O)O)=C(CSc3nnnn3C)CO[C@@H]21 (stereo partly drawn) [Compound V, Moxalactam]	2

Shift focus to the following entry.
**Q:** Requested read-out: MIC. Entry: CO/N=C(\C(=O)N[C@@H]1C(=O)N2C(C(=O)O)=CCS[C@H]12)c1csc(N)n1 [Compound IV, Ceftizoxime]
**A:** 0.5

====

system: Staphylococcus aureus; test: Mueller-Hinton agar dilution method (MIC); format: cell-based; settings: beta-lactamase positive, strain SSC 79-41, Table II, read-out: Minimal Inhibitory Concentration
quantityKind: MIC (µg/mL)
Report the figure in µg/mL without appending any unit label.

The following molecules have reported results that may help.
CO/N=C(\C(=O)N[C@@H]1C(=O)N2C(C(=O)O)=C(CSc3nnnn3C)CS[C@H]12)c1csc(N)n1	4
CO[C@@]1(NC(=O)C(C(=O)O)c2ccc(O)cc2)C(=O)N2C(C(=O)O)=C(CSc3nnnn3C)CO[C@@H]21 (stereo partly drawn)	4

Shift focus to the following entry.
**Q:** Requested read-out: MIC. Entry: CO/N=C(\C(=O)N[C@@H]1C(=O)N2C(C(=O)O)=C(CSc3cnns3)CS[C@H]12)c1csc(N)n1
**A:** 0.5

====

Reported MIC values follow for various molecules
tested on: Staphylococcus aureus; experiment: Mueller-Hinton agar dilution method (MIC); type: cell-based; details: beta-lactamase positive, strain SSC 79-41, Table II, read-out: Minimal Inhibitory Concentration
Report the figure in µg/mL without appending any unit label.

CCN1CCN(C(=O)N[C@@H](C(=O)N[C@@H]2C(=O)N3C(C(=O)O)=C(CSc4nnnn4C)CS[C@H]23)c2ccc(O)cc2)C(=O)C1=O	2
CO[C@@]1(NC(=O)Cc2cccs2)C(=O)N2C(C(=O)O)=C(COC(N)=O)CS[C@@H]21	4

**Q:** Requested read-out: MIC. Entry: CO/N=C(\C(=O)N[C@@H]1C(=O)N2C(C(=O)O)=CCS[C@H]12)c1csc(N)n1
**A:** 1
